remaining at 24 h reference
assay: Chemical stability in PBS/DMSO mixture at pH 7.4 after 24 hrs by RP-UPLC-UV method; assay type: physicochemical; settings: read-out: Stability

Nc1nc(N)c2nc(CN(Cc3ccc(B(O)O)cc3)c3ccc(C(=O)N[C@@H](CCC(=O)O)C(=O)O)cc3)cnc2n1
> 90%

Q) Reported remaining at 24 h, compound `CN(Cc1cnc2nc(N)nc(NC(=O)OCc3ccc(B(O)O)cc3)c2n1)c1ccc(C(=O)N[C@@H](CCC(=O)O)C(=O)O)cc1` : ____
A) > 90%

* * *

half-life at 20 µM reference
assay: Half life in mouse plasma at 20 uM by RP-UPLC-UV method; type: ADME, cell-free
Give me the value, and tack the unit on after it.

CN(Cc1cnc2nc(N)nc(NC(=O)OCc3ccc(B(O)O)cc3)c2n1)c1ccc(C(=O)N[C@@H](CCC(=O)O)C(=O)O)cc1
17 h

Now for the compound whose half-life at 20 µM we want.
Q) Reported half-life at 20 µM, compound `Nc1nc(N)c2nc(CN(Cc3ccc(B(O)O)cc3)c3ccc(C(=O)N[C@@H](CCC(=O)O)C(=O)O)cc3)cnc2n1` : ____
A) 63 h

* * *

assay: Half life in PBS/DMSO mixture at pH 7.4 by RP-UPLC-UV method; assay type: physicochemical
experimental.readout: half-life (days)
Unit days implied. Number only.

CN(Cc1cnc2nc(N)nc(NC(=O)OCc3ccc(B(O)O)cc3)c2n1)c1ccc(C(=O)N[C@@H](CCC(=O)O)C(=O)O)cc1
9.92

Now for the molecule whose half-life we want.
Q) Reported half-life, molecule `Nc1nc(N)c2nc(CN(Cc3ccc(B(O)O)cc3)c3ccc(C(=O)N[C@@H](CCC(=O)O)C(=O)O)cc3)cnc2n1` : ____
A) 24

* * *

assay: Metabolic stability in mouse plasma at 20 uM after 8 hrs by RP-UPLC-UV method; type: ADME, cell-free; conditions: read-out: Stability
remaining at 8 h, 20 µM reference
Give me the value, and tack the unit on after it.

Nc1nc(N)c2nc(CN(Cc3ccc(B(O)O)cc3)c3ccc(C(=O)N[C@@H](CCC(=O)O)C(=O)O)cc3)cnc2n1
91%

Now for the compound whose remaining at 8 h, 20 µM we want.
Q) Reported remaining at 8 h, 20 µM, compound `CN(Cc1cnc2nc(N)nc(NC(=O)OCc3ccc(B(O)O)cc3)c2n1)c1ccc(C(=O)N[C@@H](CCC(=O)O)C(=O)O)cc1` : ____
A) 62%

* * *

assay: Kinetic solubility of the compound in DMSO/PBS mixture after 20 hrs by RP-UPLC-UV method; assay type: physicochemical; details: read-out: Kinetic_solubility
log10(solubility kinetic at 20 h) reference
// stored as log10 of solubility kinetic at 20 h expressed in µM

CN(Cc1cnc2nc(N)nc(NC(=O)OCc3ccc(B(O)O)cc3)c2n1)c1ccc(C(=O)N[C@@H](CCC(=O)O)C(=O)O)cc1
1.94
COC(=O)CC[C@H](NC(=O)c1ccc(N(C)Cc2cnc3nc(N)nc(NC(=O)OCc4ccc(B(O)O)cc4)c3n2)cc1)C(=O)OC
0.48
CN(Cc1cnc2nc(N)nc(N)c2n1)c1ccc(C(=O)N[C@@H](CCC(=O)O)C(=O)O)cc1 [METHOTREXATE]
3.33
Nc1nc(N)c2nc(CN(Cc3ccc(B(O)O)cc3)c3ccc(C(=O)N[C@@H](CCC(=O)O)C(=O)O)cc3)cnc2n1
1.92

Now for the compound whose log10(solubility kinetic at 20 h) we want.
Q) Reported log10(solubility kinetic at 20 h), compound `COC(=O)CC[C@H](NC(=O)c1ccc(N(Cc2ccc(B(O)O)cc2)Cc2cnc3nc(N)nc(N)c3n2)cc1)C(=O)OC` : ____
A) 0.61
